# Test system: Salmonella typhimurium ATCC 14028 attached to human buccal epithelial cells
# Assay type: cell-based
# cond: 25 ug/ml; Table A-1
Response key: Met means adherence, mean value of attached bacteria >= 40; Not met means adherence, mean value of attached bacteria < 40.

As a guide, the following entries are already answered.
compound	classification
CCCCCCCCCCCC[n+]1ccccc1 [DPC, dodecylpyridinium chloride]	Met
CCCCCCCCCCCCOS(=O)(=O)[O-].[Na+] [SDS, sodium dodecylsulfate, reference compound]	Met
CCCCCCCCCCCCCC[N+](C)(C)C.[Br-] [TTMAB, tetradecyltrimethylammonium bromide]	Not met

Here is another compound to look at.
Ask | I'd appreciate it if you could say whether CCCCCCCCCCCCCCCC[n+]1ccccc1 [CPB, cetylpyridinium bromide] has adherence, mean value of attached bacteria at least equal to 40.
Reply | Not met
